measuredOn: Adenosine receptor A1 (Bos taurus, UniProt P28190)
Sequence (P28190 whole entry): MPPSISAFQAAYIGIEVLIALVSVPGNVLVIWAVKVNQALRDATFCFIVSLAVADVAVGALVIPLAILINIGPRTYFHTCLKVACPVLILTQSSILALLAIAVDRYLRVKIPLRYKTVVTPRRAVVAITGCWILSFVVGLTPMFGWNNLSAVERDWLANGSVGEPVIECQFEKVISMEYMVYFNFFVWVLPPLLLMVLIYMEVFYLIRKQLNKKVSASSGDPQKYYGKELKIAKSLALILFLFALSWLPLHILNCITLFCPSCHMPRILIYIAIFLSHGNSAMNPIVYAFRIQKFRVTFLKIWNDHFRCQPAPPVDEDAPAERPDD
assayNotes: Binding affinity towards adenosine A1 receptor of bovine brain membrane in presence of [3H]CHA at a concentration of 20 uM
Please use Satisfied for Ki under 200 nM and Not satisfied for everything else, ties included.

Below, 4 compounds whose answers are already recorded.
{"smilesCode": "O=c1n(-c2ccccc2)nc2c(NCCCc3ccccc3)nc3ccccc3n12", "measuredOn": "Adenosine receptor A1 (Bos taurus, UniProt P28190)", "labelValue": "Satisfied"}
{"smilesCode": "CCCn1c(=O)c2nn(-c3ccccc3)c(=O)n2c2ccccc21", "measuredOn": "Adenosine receptor A1 (Bos taurus, UniProt P28190)", "labelValue": "Not satisfied"}
{"smilesCode": "CC(=O)Nc1nc2ccccc2n2c(=O)n(-c3ccccc3)nc12", "measuredOn": "Adenosine receptor A1 (Bos taurus, UniProt P28190)", "labelValue": "Satisfied"}
{"smilesCode": "Cc1cccc(-n2nc3c(N)nc4ccccc4n3c2=O)c1", "measuredOn": "Adenosine receptor A1 (Bos taurus, UniProt P28190)", "labelValue": "Satisfied"}

Here's the next entry for you.
Prompt: hey, is Ki for Nc1nc2ccccc2n2c(=O)n(-c3ccc(Cl)cc3)nc12 lower than 200 nM or not?
Completion: Not satisfied
